Sourced from the supplement of paper PMC10065799

experimental system: Hck (UniProt P08631)
Sequence (P08631 whole entry, looked up): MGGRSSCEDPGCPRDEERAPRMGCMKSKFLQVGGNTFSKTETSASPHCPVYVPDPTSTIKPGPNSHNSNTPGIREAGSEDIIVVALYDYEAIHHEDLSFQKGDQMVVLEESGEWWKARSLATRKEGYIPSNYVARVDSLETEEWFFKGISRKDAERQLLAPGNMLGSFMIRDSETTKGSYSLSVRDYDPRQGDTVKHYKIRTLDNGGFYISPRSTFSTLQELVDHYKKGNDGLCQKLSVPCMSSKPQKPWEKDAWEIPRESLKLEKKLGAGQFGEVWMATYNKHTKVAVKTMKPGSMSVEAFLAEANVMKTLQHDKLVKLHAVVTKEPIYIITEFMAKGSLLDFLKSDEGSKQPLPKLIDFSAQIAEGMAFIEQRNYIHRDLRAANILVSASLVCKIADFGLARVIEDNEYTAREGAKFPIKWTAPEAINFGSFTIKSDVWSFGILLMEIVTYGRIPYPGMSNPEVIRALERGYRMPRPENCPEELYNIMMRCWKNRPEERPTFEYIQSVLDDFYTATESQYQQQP
test method notes: phosphorylation enrichment, bacterial display (enrichment ratio); higher = better substrate or ligand; peptides without Tyr show the background;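 note: 11-residue human phosphosite peptides and single-mutation variants displayed on the E. coli surface, counted by deep sequencing, each peptide's frequency after selection divided by its frequency in the unselected input library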;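 note: frequency after pTyr selection over input frequency; kinase dosed for 20-30% of maximal phosphorylation in three min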
Provide the recorded phosphorylation enrichment for the entries that follow.

Take a look at these entries with their results.
sequence content	observed value
VSTAVYKRFAS [BEST1_Y148_P152A]	0.511
FLGRDYLETLM [DUS3L_Y610_YF]	0.401
ADAGMYGVLPW [PLP1_Y207_R205G]	9.1
IDGLEYLHSPG [STK11_Y166_Q170P]	0.454
STASGYSDVTD [DTX2_Y425]	0.449

// input: 2 sequences below; output: phosphorylation enrichment for each
1. SQETYYRVSNM [ABCD1_Y181_Q178E]
2. QNTGVYYDLYG [PTPN11_Y62_D61V]

[3.97, 7.99]

---

experimental system: FGFR3 (UniProt P22607)
Sequence (P22607 whole entry, looked up): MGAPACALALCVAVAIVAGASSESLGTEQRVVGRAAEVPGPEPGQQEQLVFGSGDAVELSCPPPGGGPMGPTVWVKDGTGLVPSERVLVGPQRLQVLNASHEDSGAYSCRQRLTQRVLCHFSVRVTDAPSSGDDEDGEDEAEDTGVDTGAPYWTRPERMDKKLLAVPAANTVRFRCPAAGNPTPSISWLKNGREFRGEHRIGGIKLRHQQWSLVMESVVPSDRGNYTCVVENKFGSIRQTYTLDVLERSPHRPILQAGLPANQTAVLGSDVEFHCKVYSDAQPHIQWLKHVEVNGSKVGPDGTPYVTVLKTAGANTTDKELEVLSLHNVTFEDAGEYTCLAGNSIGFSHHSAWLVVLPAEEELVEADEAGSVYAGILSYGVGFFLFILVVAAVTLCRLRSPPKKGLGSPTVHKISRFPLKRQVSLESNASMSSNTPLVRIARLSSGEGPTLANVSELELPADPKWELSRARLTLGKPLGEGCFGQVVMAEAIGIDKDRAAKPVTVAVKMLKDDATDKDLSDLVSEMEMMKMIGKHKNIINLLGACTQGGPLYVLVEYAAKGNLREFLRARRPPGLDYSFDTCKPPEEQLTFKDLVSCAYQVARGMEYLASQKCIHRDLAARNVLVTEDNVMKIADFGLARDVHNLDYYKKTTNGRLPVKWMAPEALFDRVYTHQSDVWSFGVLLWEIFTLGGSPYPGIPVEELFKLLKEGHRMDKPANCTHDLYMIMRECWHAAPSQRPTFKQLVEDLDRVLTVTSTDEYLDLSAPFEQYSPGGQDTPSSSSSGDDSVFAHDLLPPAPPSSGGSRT
test method notes: phosphorylation enrichment, bacterial display (enrichment ratio); higher = better substrate or ligand; peptides without Tyr show the background
We'd kindly ask you to apply these phosphorylation enrichment classes: lo: < 0.6; med: ≥ 0.6 and < 0.8; hi: ≥ 0.8

Reference set, count: 2
sequence content	class assignment
ADTETYLLEKS [MYH7_Y266_I263T]	med
DDLTDYLMKIL [ACTA1_Y190_R185D]	med

Band for MSSHHYDFKKF [ZNF445_Y428_YF] ?
lo

Band for VGNPAYRSFSN [IL4R_Y497_A492V] ?
lo

Band for PLEGEYFTLQI [TP53_Y327_D324E] ?
hi

---

experimental system: FGFR3 (UniProt P22607)
test method notes: phosphorylation enrichment, bacterial display (enrichment ratio); higher = better substrate or ligand; peptides without Tyr show the background
property: phosphorylation enrichment
Answers are plain numbers.

sequence content	phosphorylation enrichment
VKFLGYPPPEI [KDR_Y357_A352V_YF]	0.555
PMQLPHDSTWE [PDGFRB_Y589_Y589H]	1.23

// input: 3 sequences below; output: phosphorylation enrichment for each
1. NIEPVYLNMLL [ATR_Y317]
2. FKELVYETVRV [FSHB_Y76]
3. VDDQIYFFRKP [PBRM1_Y1289_E1287Q_YF]

1. 5.81
2. 1.57
3. 3.47

// input: 2 sequences below; output: phosphorylation enrichment for each
1. LGMSQYFRLFN [CPT2_Y217_D213G]
2. QRRFVYFFSFL [PTEN_Y176_YF]

[0.766, 0.908]

// input: 5 sequences below; output: phosphorylation enrichment for each
1. GGPAGYLRRAS [PKLR_Y38]
2. AGQEDCDRLRP [CDC42_Y64_Y64C]
3. THEVRYVSAGQ [SLCO4A1_Y77]
4. AAILGYCHGEA [XPC_Y669_R671H]
5. IDDNQYAFLKA [HNF4A_Y286_E285Q_YF]

[0.442, 0.586, 0.45, 0.733, 1.61]

// input: 2 sequences below; output: phosphorylation enrichment for each
1. QGIYGYHHYMQ [UFSP2_Y287]
2. HSLRDYKEALM [ADA2_Y337_H335R]

1. 1.52
2. 0.881

---

Provide the recorded phosphorylation enrichment for the entries that follow.
Tested on: Fer (mouse)
test method notes: phosphorylation enrichment, bacterial display (enrichment ratio); higher = better substrate or ligand; peptides without Tyr show the background

sequence content	phosphorylation enrichment
IALSKYGRVKW [FGF6_Y186_R191W]	0.413
CSSPTYRDCLQ [LARGE2_Y682_R677C]	0.408
NGRQCYSCKGN [PLAUR_Y217]	0.377

// input: 5 sequences below; output: phosphorylation enrichment for each
1. ICRWVYPLTPE [EIF2B5_Y319_R315C]
2. EQLQSYQAEII [KRT33A_Y268]
3. QRALLYEDALF [UNC13D_Y56_YF]
4. IAKNPYDPPGR
5. STLEVYRCHPP [IL21R_Y317_S318R]

0.405
0.526
16.1
0.37
0.49

// input: 3 sequences below; output: phosphorylation enrichment for each
1. GLAKEYTDPET [CSNK1G2_Y195_I196T]
2. LCHELYNTIRD [PBRM1_Y54_V49L]
3. LYDPDYMKVIL [CYP4A22_Y104]

0.398
0.869
1.48
